System: NCI-H460 lung
experimental_details: NCI tumour cell line growth inhibition, 48 h
Task for the reader: assign each of the following compounds its reported TGI.

What value of measured TGI is listed for Cc1cn(CCCCOC(=O)NC(CCCN=C(N)N)C(=O)O)c(=O)[nH]c1=O (stereo unspecified) ? > 100 µM

What value of measured TGI is listed for CC(=O)O[C@H]1CC[C@@]2(C)C(=CC[C@H]3C(CC#N)[C@@](C)(C#N)CCC32)C1 (stereo partly specified) ? > 100 µM

What value of measured TGI is listed for `COC(=O)c1ccc(Oc2nc3ccc(C(F)(F)F)cc3nc2-c2ccccc2)cc1` ? > 100 µM

What value of measured TGI is listed for O=C1CC=C2C3CC4N(CCC45c4ccccc4N1C25)C/C3=C\CO (stereo unspecified) ? > 100 µM

What value of measured TGI is listed for `CCCCCCCCCCCCCCCCCC1=NC(C)(C)CN1C(C)(C)CO` ? 2.8 µM

What value of measured TGI is listed for `O=c1cccccc1O` ? > 100 µM

What value of measured TGI is listed for `O=c1cc(-c2ccccc2)oc2c(O)c(O)ccc12` ? > 100 µM

What value of measured TGI is listed for `COc1ccc2c(c1)C(=O)c1c-2n(CCCN=[N+]=[N-])c(=O)c2cc([N+](=O)[O-])ccc12` ? 0.0469 µM

What value of measured TGI is listed for `CCOP(=O)(OCC)/C(=C\n1ccc(=O)[nH]c1=S)C(=O)OC` ? > 100 µM

What value of measured TGI is listed for `Cc1ccc(NC(=O)C(=O)C2C(=O)NC(=O)NC2=O)c(C)c1` ? > 100 µM

What value of measured TGI is listed for Cc1ccccc1SC(/C=C/NNC1=NC(c2ccccc2)C(c2ccccc2)=NN1)c1ccccc1 (stereo unspecified) ? > 100 µM

====

Tested on: SW-620 colon
experimental_details: NCI tumour cell line growth inhibition, 48 h
Task for the reader: assign each of the following compounds its reported TGI.

What value of measured TGI is listed for `COc1cc(/C=C2\C(=O)Nc3ccc(Cl)cc32)cc(OC)c1OC` ? > 100 µM

What value of measured TGI is listed for `COc1ccc(Cc2ccc3[nH]c(=O)cc(C)c3c2)cc1S(=O)(=O)O` ? > 100 µM

What value of measured TGI is listed for `COc1c(C)c(C/C=C(\C)CC/C=C(\C)CC/C=C(\C)CC/C=C(\C)CCC=C(C)C)c(OC)c(OC)c1OC` ? > 100 µM

What value of measured TGI is listed for CC1=C(O)C(=O)C2C(=O)C1C(C)C2c1ccccc1 (stereo not given) ? > 100 µM

What value of measured TGI is listed for `Cc1cc(C)n(CN(CCCCO)Cn2nc(C)cc2C)n1` ? 63 µM

What value of measured TGI is listed for `O=C(/C=C/c1ccc(-c2ccccc2)cc1)c1ccccc1` ? 42.7 µM

What value of measured TGI is listed for `CC(C)(C)c1cc[n+](C[n+]2ccc(C(C)(C)C)cc2)cc1` ? > 100 µM

What value of measured TGI is listed for `COC(=O)CCCCCOS(=O)(=O)c1ccc(C)cc1` ? > 100 µM

What value of measured TGI is listed for OCC1CC2C=CCC(C2)C1 (stereo not given) ? > 100 µM

What value of measured TGI is listed for `COc1ccc(/C(=N/OCCCC(=O)O)c2cccs2)cc1` ? > 100 µM

====

Tested on: HT29 colon
experimental_details: NCI tumour cell line growth inhibition, 48 h
Task for the reader: assign each of the following compounds its reported TGI.
Answer with a number only, understood to be in µM.

Param readout = TGI; param system = HT29 colon; param query = CC(=O)OC1CC2C(C)(C)C(=O)C=C[C@]2(C)C2CCC3(C)C(c4ccoc4)C(=O)C4OC43[C@]12C (stereo not given in full) ; response: value 32.1

Param readout = TGI; param system = HT29 colon; param query = `CCCCNC(=O)Oc1ccc(/C(=C(\C)c2ccc(OC)cc2)c2ccc(OCCN3CCCCC3)cc2)cc1` ; response: value 6.77

Param readout = TGI; param system = HT29 colon; param query = `COc1ccc2c(c1)c1ccc3c(c1n2C)C(=O)C=CC3=O` ; response: value 34.9

Param readout = TGI; param system = HT29 colon; param query = `Oc1cccc2ccc(SSc3ccc4cccc(O)c4n3)nc12` ; response: value 41.5

Param readout = TGI; param system = HT29 colon; param query = `Cn1c(=O)nc2n(-c3ccc(F)c(F)c3)c3ccccc3nc-2c1=O` ; response: value 16

Param readout = TGI; param system = HT29 colon; param query = Cn1cnc(SC2=CC(=O)C=C3S[C@H]4C[C@@]23c2c(c(O)c3c5c2=NCCC=5C=N3)N4)c1CC(N)C(=O)O (stereo not given in full) ; response: value 11.7

Param readout = TGI; param system = HT29 colon; param query = `NC1=Nc2ccccc2Sc2nccn21` ; response: value 65.1

Param readout = TGI; param system = HT29 colon; param query = `O=C(/C=C/c1ccc(-c2ccccc2)cc1)c1ccccc1` ; response: value 52.1

Param readout = TGI; param system = HT29 colon; param query = `CCCC[C@H](CCc1ccccc1)N(C(=O)OC)N1CCC[C@H]1COC` ; response: value 29.4

Param readout = TGI; param system = HT29 colon; param query = `NC(CCl)=NCC12CC3CC(CC(C3)C1)C2` ; response: value 2.93

====

Task for the reader: assign each of the following compounds its reported TGI.
System: HL-60(TB) leukemia
experimental_details: NCI tumour cell line growth inhibition, 48 h

Param readout = TGI; param system = HL-60(TB) leukemia; param query = N#CC12CC(C=O)=C(N)C1(C#N)CC(C=O)=C2N (centres undefined) ; response: value > 100 µM

Param readout = TGI; param system = HL-60(TB) leukemia; param query = `COC(=O)c1ccc(Oc2nc3ccc(C(F)(F)F)cc3nc2-c2ccccc2)cc1` ; response: value > 100 µM

Param readout = TGI; param system = HL-60(TB) leukemia; param query = `NCCCNCc1c2ccccc2c(CNCCCN)c2ccccc12` ; response: value 39.3 µM

Param readout = TGI; param system = HL-60(TB) leukemia; param query = C=C(C)[C@@]12C[C@H](OC(=O)[C@H](O)[C@@H](NC(=O)c3ccccc3)c3ccccc3)C(C)=C1[C@@H](OC(C)=O)C(=O)[C@@]1(C)C([C@@H]2OC(=O)c2cc(F)cc(F)c2)C2(OC(C)=O)CO[C@@H]2C[C@@H]1O (some centres undefined) ; response: value 0.224 µM

Param readout = TGI; param system = HL-60(TB) leukemia; param query = `O=c1cccccc1O` ; response: value 43.7 µM

Param readout = TGI; param system = HL-60(TB) leukemia; param query = `Cn1c(=O)nc2n(-c3ccc(F)c(F)c3)c3ccccc3nc-2c1=O` ; response: value 34.9 µM

Param readout = TGI; param system = HL-60(TB) leukemia; param query = `COc1ccc(Cc2ccc3[nH]c(=O)cc(C)c3c2)cc1S(=O)(=O)O` ; response: value > 100 µM

Param readout = TGI; param system = HL-60(TB) leukemia; param query = CCCCN(C)CC(C(C)=O)C(c1ccccc1)c1c(O)c2ccccc2oc1=O (centres undefined) ; response: value > 100 µM

Param readout = TGI; param system = HL-60(TB) leukemia; param query = `COc1ccc2cc(C(=O)N3CCC([C@@H](C)C(=O)NCc4ccc5c(c4)OCO5)CC3)[nH]c2c1` ; response: value > 100 µM

Param readout = TGI; param system = HL-60(TB) leukemia; param query = `COc1ccc(/C(=N/OCCCC(=O)O)c2cccs2)cc1` ; response: value > 100 µM

Param readout = TGI; param system = HL-60(TB) leukemia; param query = `COc1cc(/C=C2\C[C@H]3[C@@H]4CC=C5C[C@@H](O)CC[C@]5(C)[C@H]4CC[C@]3(C)[C@H]2O)ccc1OCCN1CCCCC1` ; response: value 3.18 µM

Param readout = TGI; param system = HL-60(TB) leukemia; param query = `CC1(C)C(CBr)=[N+]([O-])C(C)(C)N1O` ; response: value > 6.81 µM

Param readout = TGI; param system = HL-60(TB) leukemia; param query = `CC(C)(Oc1ccc2c(=O)cc(-c3ccc(Cl)cc3)oc2c1)C(=O)Nc1c(Cl)cccc1Cl` ; response: value > 100 µM

Param readout = TGI; param system = HL-60(TB) leukemia; param query = `NC1=Nc2ccccc2Sc2nccn21` ; response: value 45 µM

Param readout = TGI; param system = HL-60(TB) leukemia; param query = `O=S(=O)(O)c1ccc(N=Nc2ccc(N=Nc3c(O)ccc4ccc(S(=O)(=O)O)cc34)cc2)cc1` ; response: value > 100 µM

Param readout = TGI; param system = HL-60(TB) leukemia; param query = `O=C1/C(=C/c2ccc([N+](=O)[O-])cc2)CCCc2ccccc21` ; response: value > 100 µM

Param readout = TGI; param system = HL-60(TB) leukemia; param query = COC1CC(O[C@H]2CC[C@@]3(C)C(=CCC4(O)C3CCC35C(=O)OC6(C)O[C@@]43CCC65)C2)OC(C)C1O (some centres undefined) ; response: value > 100 µM

Param readout = TGI; param system = HL-60(TB) leukemia; param query = CC1CCCc2c1n[nH]c2CC1CC(=O)NC(=O)C1 (centres undefined) ; response: value > 100 µM

Param readout = TGI; param system = HL-60(TB) leukemia; param query = CSc1nc2c(nc(N)n2C2OC(CO)C(O)C(O)C2O)c(=O)[nH]1 (centres undefined) ; response: value > 100 µM

Param readout = TGI; param system = HL-60(TB) leukemia; param query = C=CCN=C1NC(=O)C(CC(=O)Nc2cccc(Cl)c2)S1 (centres undefined) ; response: value > 100 µM

Param readout = TGI; param system = HL-60(TB) leukemia; param query = [N-]=[N+]=C1C(=O)C2CC3CC1CC2C3 (centres undefined) ; response: value > 100 µM

Param readout = TGI; param system = HL-60(TB) leukemia; param query = CCCCSC1CCSc2c1ccc1ccccc21 (centres undefined) ; response: value > 100 µM

Param readout = TGI; param system = HL-60(TB) leukemia; param query = `OCC#Cc1ccccc1C#Cc1ccc(C#Cc2ccccc2C#CCO)cc1` ; response: value > 100 µM

Param readout = TGI; param system = HL-60(TB) leukemia; param query = Cc1ccc(C(=O)C2C=C(c3ccc(C)cc3)SC3C=CCC32)cc1 (centres undefined) ; response: value > 100 µM
